B1: library; a variant is named by its letters at N, in order (parent)
chain: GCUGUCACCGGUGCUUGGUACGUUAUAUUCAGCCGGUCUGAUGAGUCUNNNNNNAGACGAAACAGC

# Variants of: B1
# experiment.description: normalized RNA/DNA level without ligand (relative to sTRSVctl = 100) (log10 (% of sTRSVctl)); HEK293T overexpressing SLC46A1; higher = less ribozyme self-cleavage, higher mRNA level
# assay.conditions: without (6R,S)-folinic acid; ligand present: no
Item-by-item account of normalized RNA/DNA level without ligand (log10)
Answer with the value's number alone.

{"sequence.code": "GCUGUCACCGGUGCUUGGUACGUUAUAUUCAGCCGGUCUGAUGAGUCUCGGCAGAGACGAAACAGC [CGGCAG]", "assay.result": 2}

Could you please provide reported normalized RNA/DNA level without ligand (log10) for GCUGUCACCGGUGCUUGGUACGUUAUAUUCAGCCGGUCUGAUGAGUCUAUUCCCAGACGAAACAGC [AUUCCC] ? Thanks!
2.02

Could you please provide reported normalized RNA/DNA level without ligand (log10) for GCUGUCACCGGUGCUUGGUACGUUAUAUUCAGCCGGUCUGAUGAGUCUGGUCGUAGACGAAACAGC [GGUCGU] ? Thanks!
2.03

Could you please provide reported normalized RNA/DNA level without ligand (log10) for GCUGUCACCGGUGCUUGGUACGUUAUAUUCAGCCGGUCUGAUGAGUCUUGCAUAAGACGAAACAGC [UGCAUA] ? Thanks!
1.95

Could you please provide reported normalized RNA/DNA level without ligand (log10) for GCUGUCACCGGUGCUUGGUACGUUAUAUUCAGCCGGUCUGAUGAGUCUAAGCUAAGACGAAACAGC [AAGCUA] ? Thanks!
1.99

Could you please provide reported normalized RNA/DNA level without ligand (log10) for GCUGUCACCGGUGCUUGGUACGUUAUAUUCAGCCGGUCUGAUGAGUCUGACAUUAGACGAAACAGC [GACAUU] ? Thanks!
2.02

Could you please provide reported normalized RNA/DNA level without ligand (log10) for GCUGUCACCGGUGCUUGGUACGUUAUAUUCAGCCGGUCUGAUGAGUCUCAAGGUAGACGAAACAGC [CAAGGU] ? Thanks!
1.98

Could you please provide reported normalized RNA/DNA level without ligand (log10) for GCUGUCACCGGUGCUUGGUACGUUAUAUUCAGCCGGUCUGAUGAGUCUCCCGAAAGACGAAACAGC [CCCGAA] ? Thanks!
2.03
